Consider the following molecules; for each one, report its IC50.
biological target: C3a receptor (C3aR) (Homo sapiens, UniProt Q16581); construct: peripheral blood mononuclear cells were isolated from buffy coat (obtained from Australian Red Cross Blood Service, Kelvin Grove); endogenous in cells; host or cells: primary human monocyte-derived macrophages (HMDM) differentiated from CD14+ monocytes of donor buffy coat; experiment: Competitive binding with [^125I]-C3a in HMDM; conditions: Table 6; competitive binding with [^125I]-C3a, HMDM; read-out: IC50 (converted)
Answers are plain numbers, in µM.

Illustrative cases are given below, each with its answer.
• CC(C)C[C@H](NC(=O)OC(C)(C)C)c1nc(C(=O)N[C@@H](CCCNC(=N)N)C(=O)NS(C)(=O)=O)co1 [Compound 93] = 0.03
• CC[C@H](C)[C@H](NC(=O)Cc1c[nH]c2ccccc12)c1nc(C(=O)N[C@@H](CCCNC(=N)N)C(=O)O)co1 [Compound 9] = 0.152
• CC(C)C[C@H](NC(=O)OC(C)(C)C)c1nc(C(=O)N[C@@H](Cc2ccc(C(=N)NO)cc2)C(=O)O)co1 [Compound 84] = 0.076
• CC[C@H](C)[C@H](NC(=O)c1ccccc1)c1nc(C(=O)N[C@@H](CCCNC(=N)N)C(=O)O)co1 [Compound 6, Benzoyl Isoleucine Oxazole Arginine-OH] = 0.026

Items follow; give IC50 for each.
1. N=C(N)NCCC[C@H](NC(=O)c1ccc(C(c2ccccc2)c2ccccc2)s1)C(=O)NS(=O)(=O)c1ccccc1 [Compound 94]
2. CC(C)C[C@H](NC(=O)CC(c1ccccc1)c1ccccc1)c1nc(C(=O)N[C@@H](CCCNC(=N)N)C(=O)O)co1 [Compound 19]

0.035
0.754

###

target: C3aR (Homo sapiens, UniProt Q16581); construct: peripheral blood mononuclear cells were isolated from buffy coat (obtained from Australian Red Cross Blood Service, Kelvin Grove); endogenous in cells; host or cells: primary human monocyte-derived macrophages (HMDM) differentiated from CD14+ monocytes of donor buffy coat; test: Calcium mobilization assay in HMDM (agonist/antagonist activity); type: cell-based; details: Table 9; Ca^2+ mobilization, HMDM; read-out: EC50
Sequence (Q16581 whole entry): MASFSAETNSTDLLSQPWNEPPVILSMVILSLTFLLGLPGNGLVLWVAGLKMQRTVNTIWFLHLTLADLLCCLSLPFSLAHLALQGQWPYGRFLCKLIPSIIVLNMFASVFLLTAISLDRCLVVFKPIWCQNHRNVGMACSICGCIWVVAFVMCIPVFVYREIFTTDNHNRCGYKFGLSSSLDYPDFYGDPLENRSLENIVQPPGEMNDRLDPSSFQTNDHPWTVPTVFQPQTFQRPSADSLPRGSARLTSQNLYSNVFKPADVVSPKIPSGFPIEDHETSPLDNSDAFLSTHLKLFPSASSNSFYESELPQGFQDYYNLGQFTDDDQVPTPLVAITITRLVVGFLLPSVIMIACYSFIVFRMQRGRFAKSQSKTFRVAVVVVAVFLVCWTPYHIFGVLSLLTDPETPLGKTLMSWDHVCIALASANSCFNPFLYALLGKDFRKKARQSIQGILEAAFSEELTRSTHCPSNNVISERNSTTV
readout_kind: EC50
Give me the value, and tack the unit on after it.

• Cc1[nH]c([C@H](CC(C)C)NC(=O)c2c[nH]c3ccccc23)nc1C(=O)N[C@@H](CCCNC(=N)N)C(=O)O = 0.015 µM
• CC(C)C[C@H](NC(=O)CC(c1ccccc1)c1ccccc1)c1nc(C(=O)N[C@@H](CCCNC(=N)N)C(=O)O)co1 = 0.744 µM
• CC[C@H](C)[C@H](NC(=O)c1ccc(OC)cc1OC)c1nc(C(=O)N[C@@H](CCCNC(=N)N)C(=O)O)co1 = 0.849 µM
• CC(C)(C)OC(=O)N[C@@H](CC1CCCCC1)c1nc(C(=O)N[C@@H](CCCNC(=N)N)C(=O)O)co1 = 0.135 µM
• CC[C@H](C)[C@H](NC(=O)C1CCCc2ccccc21)c1nc(C(=O)N[C@@H](CCCNC(=N)N)C(=O)O)co1 (stereo partly shown) = 0.24 µM
• CC[C@H](C)[C@H](NC(=O)OC(C)(C)C)c1nc(C(=O)N[C@@H](CCCNC(=N)N)C(=O)O)c(C)o1 = 0.045 µM
• CC[C@H](C)[C@H](NC(=O)c1cncc(Br)c1)c1nc(C(=O)N[C@@H](CCCNC(=N)N)C(=O)O)co1 = 0.017 µM
• CC(C)C[C@H](NC(=O)c1c[nH]c2ccccc12)c1nc(C(=O)N[C@@H](CCCNC(=N)N)C(=O)O)co1 = 0.0072 µM

Each compound below has a reported value. Please supply its EC50.
1. CC[C@H](C)[C@H](NC(=O)c1ccccc1)c1nc(C(=O)N[C@@H](CCCNC(=N)N)C(=O)O)co1
2. Cc1nc(C(c2ccccc2)c2ccccc2)sc1C(=O)N[C@@H](CCCNC(=N)N)C(=O)O

1: 5 µM; 2: 74.8 µM

Need EC50 for each of these compounds.
1. CC[C@H](C)[C@H](NC(=O)C(c1ccccc1)c1ccccc1)c1nc(C(=O)N[C@@H](CCCNC(=N)N)C(=O)O)co1
2. Cc1c(C(=O)N[C@@H](CCCNC(=N)N)C(=O)O)nc([C@H](CC(C)C)NC(=O)OC(C)(C)C)n1C
3. Cc1[nH]c([C@H](CC(C)C)NC(=O)OC(C)(C)C)nc1C(=O)N[C@@H](CCCNC(=N)N)C(=O)O
4. CC(C)C[C@H](NC(=O)Cc1ccc(F)cc1)c1nc(C(=O)N[C@@H](CCCNC(=N)N)C(=O)O)co1
5. CC(C)C[C@H](NC(=O)OC(C)(C)C)c1nc(C(=O)N[C@@H](CCCN/C(N)=N\C#N)C(=O)O)co1

1. 5.6 µM
2. 0.06 µM
3. 0.12 µM
4. 0.527 µM
5. 0.25 µM
